# Tested on: RXF 393 renal
# Assay comment: NCI tumour cell line growth inhibition, 48 h
Assay metric: TGI

>>> reported_measurement("COc1ccc(N2C(=O)CSC2c2c[nH]c3ccccc23)cc1 (stereo unspecified)")
"> 100 µM"
>>> reported_measurement("O=C(O)/C=c1/c2ccccc2n2nc3ccccc3c12")
"> 100 µM"
>>> reported_measurement("CC(=O)OCC1OC(n2c3c(cc(C#N)c2=S)CCCCC3)C(OC(C)=O)C(OC(C)=O)C1OC(C)=O (stereo unspecified)")
"> 100 µM"
>>> reported_measurement("COc1cccc(C#Cc2ccccc2C#CCCCCO)c1")
"9.89 µM"
>>> reported_measurement("O=S(=O)(Nc1cc(Sc2cccc3cccnc23)c(O)c2ccccc12)c1ccccc1")
"12.3 µM"
>>> reported_measurement("C=C1CN2CC(=C)CN(C1)CS(=O)(=O)N1CC(=C)CN(CC(=C)C1)S(=O)(=O)N1CC(=C)CN(CC(=C)C1)S(=O)(=O)C2")
"56.8 µM"
>>> reported_measurement("O=C1NC(=O)C(CC2CCCCCCCCCCC2=O)C(=O)N1 (stereo unspecified)")
"> 100 µM"
>>> reported_measurement("O=C1O[C@H](c2ccc3c(c2)OCO3)[C@H]2CO[C@@H](c3ccc4c(c3)OCO4)[C@@H]12")
"> 100 µM"
>>> reported_measurement("Cn1c(COC(=O)Nc2ccccc2)c(COC(=O)Nc2ccccc2)c2ccc3cc(Cl)c(Cl)cc3c21")
"39.5 µM"
>>> reported_measurement("CSc1cnc2ccccc2c1SC1CN(Cc2ccccc2)c2ccccc2C1=O (stereo unspecified)")
"> 100 µM"
>>> reported_measurement("C/C(N=NC(=S)N(C)C)=C1\\C=CC=CN1O")
"> 100 µM"
>>> reported_measurement("CCOC(=O)NC(Nc1cccc(C(F)(F)F)c1)(C(F)(F)F)C(F)(F)F")
"> 100 µM"
>>> reported_measurement("CC/C=C\\C[C@H]1C/C=C2/C(=O)C=C[C@@H]2C/C=C\\CCCC(=O)O1")
"3.1 µM"
>>> reported_measurement("CC(C)NC(=O)OCCN=c1c2ccccc2ccc2ccccc12")
"> 100 µM"
>>> reported_measurement("On1c(-c2ccccc2)nc2ccccc2c1=S")
"> 100 µM"
>>> reported_measurement("CC(C)CC(O)P(=O)(O)O (stereo unspecified)")
"> 100 µM"
>>> reported_measurement("CC(=O)[C@@]1(O)CC[C@H]2[C@@H]3C[C@H](C)C4=CC(=O)C=C[C@]4(C)[C@@]3(F)[C@@H](O)C[C@@]21C")
"> 100 µM"
>>> reported_measurement("Br[C](Br)(Br)[Hg][c]1ccccc1")
"21.5 µM"
>>> reported_measurement("COc1ccc2nc(NC(=O)C(=O)C(C#N)c3ccc([N+](=O)[O-])cc3)sc2c1 (stereo unspecified)")
"> 100 µM"
>>> reported_measurement("N#CC1=C(N)N(c2ccccc2)C(c2ccccc2)C1(C#N)C#N (stereo unspecified)")
"33.6 µM"
>>> reported_measurement("c1ccc(C2Nc3ccccc3C3OCCCC23)cc1 (stereo unspecified)")
"50.4 µM"
